# Tested on: ZIKV replicon in Vero cells
# method_description: ZIKV Replication Inhibition Assay (replicon, NanoLuc)
# condition_notes: Zika virus, Vero, 72 h, read-out: Zika Replicon EC50
Structures can show the parent of a compound that is named as a salt.
# key: entry, value: EC50
observed_property: EC50

>  <compound>
Cn1cc(-c2ccc(C[n+]3cc([N-]C(=O)Nc4cccc(C(F)(F)F)c4)on3)cc2)cn1

>  <observed_property>
EC50

>  <result>
100 to 1000 nM

$$$$
>  <compound>
O=C([N-]c1on[n+](Cc2ccccc2)c1Cl)Nc1cccc(C(F)(F)F)c1

>  <observed_property>
EC50

>  <result>
> 20000 nM

$$$$
>  <compound>
Cc1noc(C)c1-c1ccc([C@H](CN)[n+]2cc([N-]C(=O)Nc3cccc(C(F)(F)F)c3)on2)cc1 [Example 99, formate]

>  <observed_property>
EC50

>  <result>
< 100 nM

$$$$
>  <compound>
Cc1ccncc1-c1ccc(C[n+]2cc([N-]C(=O)Nc3cccc(C(F)(F)F)c3)on2)nc1

>  <observed_property>
EC50

>  <result>
< 100 nM

$$$$
>  <compound>
Cc1noc(C)c1-c1ccc(C[n+]2cc([N-]C(=O)Nc3ccc(F)c(C(F)(F)F)c3)on2)nc1

>  <observed_property>
EC50

>  <result>
< 100 nM

$$$$
>  <compound>
Cc1ncnc(C)c1-c1ccc(C[n+]2cc([N-]C(=O)Nc3cncc(C(F)(F)F)c3)on2)cc1

>  <observed_property>
EC50

>  <result>
1000 to 20000 nM

$$$$
>  <compound>
O=C([N-]c1c[n+](Cc2ccc(-c3c(Cl)ncnc3Cl)cn2)no1)Nc1cccc(C(F)(F)F)c1

>  <observed_property>
EC50

>  <result>
1000 to 20000 nM

$$$$
>  <compound>
Cc1ncnc(C)c1-c1ccc([C@@H](C)[n+]2cc(NC(=O)Nc3ccnc(C(F)(F)F)c3)on2)cc1

>  <observed_property>
EC50

>  <result>
< 100 nM

$$$$
>  <compound>
Cc1ncncc1-c1csc(C[n+]2cc([N-]C(=O)Nc3cccc(C(F)(F)F)c3)on2)c1

>  <observed_property>
EC50

>  <result>
100 to 1000 nM

$$$$
>  <compound>
Cc1ncnc(C)c1-c1ccc(C[n+]2cc([N-]C(=O)Nc3ccnc(C(F)(F)F)c3)on2)nc1

>  <observed_property>
EC50

>  <result>
100 to 1000 nM

$$$$
>  <compound>
N#Cc1ncncc1-c1ccc(C[n+]2cc([N-]C(=O)Nc3cccc(C(F)(F)F)c3)on2)nc1

>  <observed_property>
EC50

>  <result>
100 to 1000 nM

$$$$
>  <compound>
Cc1nn(C)c(C)c1-c1ccc(C[n+]2cc([N-]C(=O)Nc3cccc(C(F)(F)F)c3)on2)nc1

>  <observed_property>
EC50

>  <result>
100 to 1000 nM

$$$$
>  <compound>
O=C([N-]c1c[n+](Cc2ccc3ccccc3c2)no1)Nc1cccc(C(F)(F)F)c1

>  <observed_property>
EC50

>  <result>
1000 to 20000 nM

$$$$
>  <compound>
Cc1ncccc1-c1ccc(C[n+]2cc([N-]C(=O)Nc3cccc(C(F)(F)F)c3)on2)nc1

>  <observed_property>
EC50

>  <result>
< 100 nM

$$$$
>  <compound>
Cc1ncncc1-c1ccc([C@H](C)[n+]2cc([N-]C(=O)Nc3cccc(C(F)(F)F)c3)on2)cc1

>  <observed_property>
EC50

>  <result>
< 100 nM

$$$$

Reference for the values: patent US20250353853A1
